Target: T1, Spike (BA.1) (SARS-CoV-2, Omicron BA.1, strain)
T1 construct: source: bought: Sino Biological
Test: SPR
Details: both partners purified
Listing: Kd of selected binders
MEASURED QUANTITY: Kd (nM)

binder="TH236 (antibody, V domains shown, IgG1 (D2:p3)) VH: QVQLVESGGGLVKPGGSLRLSCAASGFMISDSYMNWIRQPPGKGLEWVSYISSNGYAIYYGDSVKGRFTISRDNAKNFLYLQMNSLRVEDTAVYYCAREQPGGYYDSSGYRLDPWGQGILVTVSS VL: QSALTQPASVSGSPGQSITISCTGTSSDVGGYNYVSWYQQHPGKAPKLMIYDVSNRPSGVSNRFSGSKSGNTASLTISGLQAEDEADYYCSSYTSSSTLYVFGTGTKVTVL" units=nM readout_value=0.0867
binder="TH027 (antibody, V domains shown, IgG1 (D2:p3)) VH: QITLKESGLTLVRPTQTLTLTCTFSGFSLINSGVGVGWIRQPPGKALEWLALIYWDDDKRYNPSLRSRLTISKATSKNQVVLTMTNMDPVDTATYYCTHRGPGHNTPIYFEFWGQGALVTVSS VL: QSVLTQSPSASGTPGQRVTISCSGSRSNIGSNFVYWFHQLPGTAPKLLIHSNDQRPSGVPDRFSGSNSGTSASLAISGLRSEDEADYYCAAWDDSLSSWVFGGGTKLTVL" units=nM readout_value=7.06
binder="TH003 (antibody, V domains shown, IgG1 (D2:p3)) VH: EVRLLESGGGLVQPGGSLRLSCAASGFTFNDYAMSWVRQAPGEGLEWVSTISYSGGSTYYADSVKGRFTISRDNSKNMLYLQMNSLRAEDTALYYCANGVATADWYFDLWGRGTLVTVSS VL: QSALTQPRSVSGSPGQSVTISCTGTSSDVGGYNYVSWFQHHPGKAPKLMIYDVTDRPSGVPDRFSGSKSGNTASLTISGLQAEDAADYYCCSYAGTYTVFGGGTKLTVL" units=nM readout_value=2.55
